B1: NELF-E aptamer (parent)
chain: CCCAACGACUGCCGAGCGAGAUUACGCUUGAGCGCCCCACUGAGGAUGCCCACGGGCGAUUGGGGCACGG

# Variants of: B1
# method_notes: HiTS-RAP
# assay_conditions: with NELF-E (Drosophila)
quantity: pKd
# pKd: negative log10 of molar concentration; output just the value

Consider the worked cases shown below.
U23G U29G: 8.29
A4G C37U: 7.88
C9G U10G: 8.26
C13G: 8.31
C13G C66U: 8.27

stdin: Entry under review: G16U U61A . Reported pKd?
stdout: 7.48

stdin: Also U22G G44A ?
stdout: 7.76

stdin: Can you check U10G A31U next?
stdout: 8.23

stdin: Same for `A15G`
stdout: 8.32

stdin: Item: A4C A5G
stdout: 8.22

stdin: Do the same for C12A U23G please
stdout: 8.23

Recorded values, source the RNAGym collection of RNA variant scans (doi:10.1038/nmeth.2970).
